Origin of measurements: ChEMBL document CHEMBL3988442

- target under test: Chromo domain-containing protein 1 (Saccharomyces cerevisiae (strain ATCC 204508 / S288c) (Baker's yeast))
- method: ScCHD-1 Enzyme Inhibition Assay
- Format: functional
- Design: scale not given: in the data most compounds retested in dose-response had high values
- settings: 30 µM
Catalogue of compounds with associated Percent Effect
Give just the number in %; leave the unit off.

Before answering, review these 6 worked examples.
> print(dat)
                                   compound  units.text  result.value
1  CCn1nc(C)c(CNC(=O)c2cn(CC3CCCO3)nn2)c1C (configuration not stated)           %        -0.117
2  CSCC[C@H](N)C(=O)NCc1cc2n(n1)CCCN(C(=O)C1CCC1)C2           %         -3.49
3  Cc1nnc(CN2CCC(N(C)Cc3nnc(C4CC4)n3C)C2)o1 (configuration not stated)           %         -4.72
4  CCc1n[nH]c(C2CN(Cc3nnc(C4CC4)n3C)CCO2)n1 (configuration not stated)           %         -17.9
5  COc1ccc(NC(=O)C(c2cccc(F)c2)N2CCOCC2)cc1 (configuration not stated)           %         -3.15
6  O=C(Cn1ccc2ccc(Br)cc21)NC[C@@H]1CCCN2CCCC[C@H]12           %         -8.03

## Input I would be grateful if you could share the reported Percent Effect for COCC(=O)NCc1cc(=O)n2c(n1)CN(Cc1ccsc1)CCC2 .
## Output 2.68

## Input Queued: CCOc1ccc(CC(CNC(=O)c2occc2C)C(N)=O)cc1 (configuration not stated)
## Output -12.3

## Input Queued: Cc1cncc(C(=O)N2CCC(Cn3cc(-c4ccsc4)nn3)CC2)c1
## Output -1.22

## Input Queued: CS(=O)(=O)N1CC[C@H]2[C@H](C[C@@H](Cn3cncn3)N2CC2CC2)C1
## Output -0.097

## Input Queued: CCN(Cc1nc2c(cnn2C)c(=O)[nH]1)c1cccc(F)c1
## Output -15.7
